TEST_SUMMARY: chemical genetic growth profiling, strain panel (AID 1159580);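 also: tested at 20 µM; growth read once vehicle control cultures reached saturation at 30 °C; 1 = growth at the plate median or of vehicle wells; lower values mean less growth of the strain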
RECORDED_CONDITIONS: S. cerevisiae deletion strains, growth OD, locus YKR026C, strain gcn3, hits give low values
The whole screen tested about 5,500 compounds, of which about 2,000 (36%) were called active. Inconclusive results (about 18%) are left out. Some of the results follow.
Below is a list of entries, each paired with its recorded normalized growth value.

[
  {
    "MOLECULE": "COc1ccc2c(c1)[C@]13CCCC[C@H]1[C@H](C2)N(C)CC3",
    "normalized growth": "0.966 (inactive)"
  },
  {
    "MOLECULE": "CC(=O)OCC(=O)[C@@]1(O)CCC2C3CCC4=CC(=O)CC[C@]4(C)C3[C@@H](O)C[C@@]21C (some centres undefined)",
    "normalized growth": "1 (inactive)"
  },
  {
    "MOLECULE": "CN(C)CCc1c[nH]c2ccc(CS(=O)(=O)N3CCCC3)cc12",
    "normalized growth": "0.976 (inactive)"
  },
  {
    "MOLECULE": "Cc1c(NC(=O)c2cccnc2)c(=O)n(-c2ccccc2)n1C",
    "normalized growth": "0.997 (inactive)"
  },
  {
    "MOLECULE": "Cc1ccc(N(CC2=NCCN2)c2cccc(O)c2)cc1",
    "normalized growth": "1.03 (inactive)"
  },
  {
    "MOLECULE": "c1ccc([C@H]2CN3CCSC3=N2)cc1",
    "normalized growth": "1.02 (inactive)"
  },
  {
    "MOLECULE": "CN(C)CCc1c[nH]c2ccc(C[C@H]3COC(=O)N3)cc12",
    "normalized growth": "0.992 (inactive)"
  },
  {
    "MOLECULE": "C#CC1(O)CCC2C3CCC4=CC(=O)CCC4(C)C3CCC21C (centres undefined)",
    "normalized growth": "0.991 (inactive)"
  },
  {
    "MOLECULE": "Cc1cc(=O)n(-c2ccccc2)n1C",
    "normalized growth": "1 (inactive)"
  }
]

====

Listed here: items and their measured normalized growth.
TEST_SUMMARY: chemical genetic growth profiling, strain panel (AID 1159580);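 also: tested at 20 µM; growth read once vehicle control cultures reached saturation at 30 °C; 1 = growth at the plate median or of vehicle wells; lower values mean less growth of the strain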
RECORDED_CONDITIONS: S. cerevisiae deletion strains, growth OD, locus YLR262C, strain YPT6, hits give low values
The whole screen tested about 5,500 compounds, of which about 2,000 (36%) were called active. Roughly 18% stayed inconclusive and do not appear here. The list shows a part of the results.

[
  {
    "MOLECULE": "C[C@]12CCC(=O)C=C1CCC1C2C(=O)C[C@@]2(C)C1CC[C@]2(O)C(=O)CO (stereo partly specified)",
    "normalized growth": 1.03
  },
  {
    "MOLECULE": "C#C[C@]1(O)CCC2C3CCC4=Cc5oncc5C[C@]4(C)C3CC[C@@]21C (stereo partly specified)",
    "normalized growth": 0.565
  },
  {
    "MOLECULE": "CCOC(=O)c1cnc2nc(SC)nn2c1N",
    "normalized growth": 1.01
  },
  {
    "MOLECULE": "COc1cc2c(cc1OC)[C@@H]1C(=O)c3ccc4c(c3O[C@@H]1CO2)CC(C(C)C)O4 (stereo partly specified)",
    "normalized growth": 0.822
  },
  {
    "MOLECULE": "CC(=O)OCC(=O)[C@@]1(O)CCC2C3CCC4=CC(=O)CC[C@]4(C)C3[C@@H](O)C[C@@]21C (stereo partly specified)",
    "normalized growth": 1.04
  },
  {
    "MOLECULE": "Cc1cccc(C(=O)c2ccccc2C(=O)O)c1",
    "normalized growth": 0.984
  },
  {
    "MOLECULE": "CSc1nc(N)nc(N2CCCCC2)n1",
    "normalized growth": 1.02
  },
  {
    "MOLECULE": "NC(=S)c1ccc(Oc2ccc(Cl)cc2)nc1",
    "normalized growth": 0.0758
  },
  {
    "MOLECULE": "COc1cccc(C(=O)N/N=C(/C)c2ccccc2O)c1",
    "normalized growth": 0.625
  },
  {
    "MOLECULE": "C[C@]12CCC(=O)C=C1CCC1C2[C@@H](O)C[C@@]2(C)C1CC[C@]2(O)C(=O)COC(=O)CCC(=O)O (stereo partly specified)",
    "normalized growth": 1.06
  },
  {
    "MOLECULE": "O=C(COC(=O)c1ccccc1C(=O)c1ccccc1)c1ccccc1",
    "normalized growth": 0.933
  }
]

====

TEST_SUMMARY: chemical genetic growth profiling, strain panel (AID 1159580);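 also: tested at 20 µM; growth read once vehicle control cultures reached saturation at 30 °C; 1 = growth at the plate median or of vehicle wells; lower values mean less growth of the strain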
RECORDED_CONDITIONS: S. cerevisiae deletion strains, growth OD, locus YDL005C, strain med2, hits give low values
Among all 5,500 compounds or so, about 2,000 (36%) were called active. Inconclusive results (about 18%) are left out. The list shows a part of the results. *1 amine or outer side, *2 acyl side, *3 side chain or, on linkers, in order; H or OH if unused. Where a SMILES comes first, the peptide text is derived from it. Bridges are numbered along the chain shown (N, C = ends). [ ]: non-standard residue; d: D form. The star is where a group is joined. ξ: configuration not given here. ΔAla(E,3-NHCONH2) = NC(=O)N/C=C(/N)C(=O)O; X2 = NC1=NCCC(C(N[*:1])C(=O)[*:2])N1; Octanoyl(6-Me) = CCC(C)CCCCC(=O)*; ξβ3hOrn = NCCCC(N)CC(=O)*; Dab = NCC[CH](N)C(=O)O; Dap = NC[CH](N)C(=O)O
Listed next: entries and their corresponding normalized growth.

[
  {
    "COMPOUND": "CC1(C)C(=O)[C@@H]2C[C@@]3(O)C4=CC(=O)O[C@@H](c5ccoc5)[C@]4(C)CCC3[C@@](C)(C2=O)[C@H]1CC(=O)O (some centres not stated)",
    "normalized growth": 0.996
  },
  {
    "COMPOUND": "OCc1c[nH]c2ccccc12",
    "normalized growth": 0.989
  },
  {
    "COMPOUND": "CCc1cccc2c3c([nH]c12)C(CC)(CC(=O)O)OCC3 (configuration not stated)",
    "normalized growth": 0.971
  },
  {
    "COMPOUND": "CC1=CC2C(C(C)C)CCC(C)(O)C2CC1 (configuration not stated)",
    "normalized growth": 0.998
  },
  {
    "COMPOUND": "NCCCC(N)CC(=O)NCC1NC(=O)C(CO)NC(=O)C(N)CNC(=O)C(C2CCN=C(N)N2)NC(=O)/C(=C\\NC(N)=O)NC1=O (stereo not drawn) (H-[Dap]S[Dap](ξβ3hOrn)[ΔAla(E,3-NHCONH2)][X2]; lactam 1-C; configuration not given here)",
    "normalized growth": 0.994
  },
  {
    "COMPOUND": "CCC(C)CCCCC(=O)NC(CCN)C(=O)NC(C(=O)NC(CCN)C(=O)NC1CCNC(=O)C(C(C)O)NC(=O)C(CCN)NC(=O)C(CCN)NC(=O)C(CC(C)C)NC(=O)C(Cc2ccccc2)NC(=O)C(CCN)NC1=O)C(C)O (configuration not stated) ({Octanoyl(6-Me)}-[Dab]T[Dab][Dab][Dab]FL[Dab][Dab]T; lactam 4-C; configuration not given here)",
    "normalized growth": 0.99
  },
  {
    "COMPOUND": "c1ccc2c(Cc3c[nH]c4ccccc34)c[nH]c2c1",
    "normalized growth": 0.939
  },
  {
    "COMPOUND": "CNC(Cc1c[nH]c2ccccc12)C(=O)O (configuration not stated)",
    "normalized growth": 0.975
  },
  {
    "COMPOUND": "CC(=O)Oc1ccccc1C(=O)O",
    "normalized growth": 0.985
  },
  {
    "COMPOUND": "COc1cccc(OC)c1C(=O)N[C@@H]1C(=O)N2[C@@H]1SC(C)(C)[C@@H]2C(=O)O",
    "normalized growth": 0.991
  },
  {
    "COMPOUND": "CN(C)CCc1c[nH]c2ccc(CS(=O)(=O)N3CCCC3)cc12",
    "normalized growth": 1.01
  },
  {
    "COMPOUND": "NC[C@H]1O[C@H](O[C@H]2C(O[C@@H]3O[C@H](CO)[C@@H](O)[C@H]3O)[C@@H](O)[C@H](N)C[C@@H]2N)[C@H](N)[C@@H](O)[C@@H]1O (some centres not stated)",
    "normalized growth": 1.01
  },
  {
    "COMPOUND": "CC(=O)CC1CCCCN1 (configuration not stated)",
    "normalized growth": 1.02
  },
  {
    "COMPOUND": "CC(=O)[O][Hg][c]1ccccc1",
    "normalized growth": 0.0736
  },
  {
    "COMPOUND": "C=C(C)[C@@H]1CC[C@]2(CO)CC[C@]3(C)[C@H](CCC4[C@@]5(C)CC[C@H](O)C(C)(C)C5CC[C@]43C)C12 (some centres not stated)",
    "normalized growth": 1
  },
  {
    "COMPOUND": "CCN(CC)CCNC(=O)c1cc(Cl)c(N)cc1OC",
    "normalized growth": 0.986
  },
  {
    "COMPOUND": "C1CCC(C(CC2CCCCN2)C2CCCCC2)CC1 (configuration not stated)",
    "normalized growth": 0.983
  }
]

The reported measurements were obtained from PubChem BioAssay AID1159580.
